Average Signal (RLU) at 100 nM for assorted binders
SYSTEM TESTED: T1, human GITR (amino acids M1-V241, NCBI Accession #NP_004186.1) expressed on cells (human, UniProt Q9Y5U5 26-241)
T1 construct: also called hGITR; hGITR/HEK293-D9
T1 sequence: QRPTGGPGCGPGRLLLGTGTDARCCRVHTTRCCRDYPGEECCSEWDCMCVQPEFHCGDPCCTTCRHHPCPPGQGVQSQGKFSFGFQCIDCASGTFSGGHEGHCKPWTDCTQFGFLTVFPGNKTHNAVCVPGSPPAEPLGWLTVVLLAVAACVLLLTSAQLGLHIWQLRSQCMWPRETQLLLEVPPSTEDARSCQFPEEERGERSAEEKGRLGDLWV
ASSAY REMARKS: ECL cell binding, hGITR/HEK293-D9
ASSAY ENDPOINT: Average Signal (RLU) at 100 nM

BINDER	OBSERVED VALUE
H1H14495P (antibody, human IgG1, V domains shown, human IgG1 (H1H)) VH: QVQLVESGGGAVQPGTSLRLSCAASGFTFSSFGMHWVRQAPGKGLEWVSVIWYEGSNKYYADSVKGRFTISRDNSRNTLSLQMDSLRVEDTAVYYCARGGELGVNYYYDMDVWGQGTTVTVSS VL: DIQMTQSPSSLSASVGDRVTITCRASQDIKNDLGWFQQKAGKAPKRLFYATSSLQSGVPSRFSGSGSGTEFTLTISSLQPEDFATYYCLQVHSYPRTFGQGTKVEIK	6470
H1H14523P (antibody, human IgG1, V domains shown, human IgG1 (H1H)) VH: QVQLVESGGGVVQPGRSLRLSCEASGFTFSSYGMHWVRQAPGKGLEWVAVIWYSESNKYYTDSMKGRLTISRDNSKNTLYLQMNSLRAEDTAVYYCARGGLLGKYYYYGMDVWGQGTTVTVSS VL: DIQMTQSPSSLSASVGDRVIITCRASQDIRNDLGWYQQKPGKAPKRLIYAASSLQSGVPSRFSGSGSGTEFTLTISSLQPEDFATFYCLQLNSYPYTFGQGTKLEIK	6350
H1H14512P (antibody, human IgG1, V domains shown, human IgG1 (H1H)) VH: QVQLVESGGGVVQPGRSLRLSCAVSGFTLSSYGMDWVRQAPGKGLEWVAVIWYDGSNKYYSDSVKGRFTISRDNSKNTLFLQMNSLRADDTAVYYCARDGELGLDYYSGMDVWGQGTTVTVSS VL: DIQMTQSPSSLSASVGDRVTITCRASQDIRNDLGWYQQKPGKAPKRLIYGASSLQSGVPSRFSGSGSGTEFTLTISSLQPEDFATYYCLQLNSYPRTFGQGTKVEIK	4620
